tested on: OVCAR-5 ovarian; assay: NCI tumour cell line growth inhibition, 48 h
Overview of reported TGI across a group of compounds:

// known answers, use as guide
>  <compound>
CCCN(CCC)c1c([N+](=O)[O-])cc(C(=O)N(C)C)cc1[N+](=O)[O-]

>  <result>
> 100 µM

$$$$
>  <compound>
Cc1nc(N)nc(N)c1N1CCN(Cc2ccccc2)CC1

>  <result>
> 100 µM

$$$$
>  <compound>
CC(C)(C)c1cc(C2NC(=O)NC2=O)cc(C(C)(C)C)c1O (stereo not given)

>  <result>
> 100 µM

$$$$
>  <compound>
COc1ccc(/C=C/C(c2cc(OC)c(OC)c(OC)c2)n2cncn2)cc1O (stereo not given)

>  <result>
72.6 µM

$$$$
>  <compound>
CCCCCCCCCC(=O)N[C@H]1CCc2cc(OC)c(OC)c(OC)c2-c2ccc(SC)c(=O)cc21

>  <result>
> 100 µM

$$$$

Task: Please state recorded TGI (tested on OVCAR-5 ovarian) of `COc1cc(C(CC(OC)OC)=C(C#N)C#N)cc(OC)c1OC`
Result: > 100 µM

Task: Check CCOC(=O)CCC(NC(=O)c1ccc(NCc2ccc3nc(-c4ccccc4)c(Cl)nc3c2)c2ccccc12)C(=O)OCC (stereo not given) too.
Result: > 100 µM

Task: Next record, please: `CC(C)(C)n1cc(-c2ccnc(NCCNS(=O)(=O)c3cccc4ccccc34)c2)c(-c2cccc(F)c2)n1`
Result: 69.9 µM

Task: What do we get for `Cc1csc2n(C)c(=O)c3ccccc3[n+]12` ?
Result: > 100 µM

Task: Also `CCOC(=O)c1ccc(NC(NC(=O)CC)(C(F)(F)F)C(F)(F)F)cc1` ?
Result: > 100 µM

Task: Continue with CC12CCC(O)CC1CCC1C2CCC2(C)C(C3=CC(=O)OC3)CCC12 (stereo not given)
Result: > 100 µM

Task: Please give the result for `Nc1c(O)c(S(=O)(=O)O)c(O)c2c1C(=O)c1ccccc1C2=O` too.
Result: 32.5 µM

Task: Repeat with NC(=S)N/N=C(\C(=O)Nc1ccc(Cl)c(Cl)c1)C1=NN(c2ccccc2)C(c2cccc([N+](=O)[O-])c2)CC1=O (stereo not given)
Result: > 100 µM

Task: Now give it for `Cc1ccccc1NC(=O)c1sc2nc3c(cc2c1N)C(=O)CCC3` too.
Result: > 100 µM

Task: Repeat for the following compound: `CN(C)/C=N/S(=O)(=O)c1nn2c(C=O)c(-c3cc4ccccc4oc3=O)nc2s1`
Result: > 84.3 µM

Task: Try the compound O=C(CC(=O)Nc1ccccc1Cl)NNC(Sc1ccccc1)c1cc(N=Nc2ccc(Br)cc2)ccc1O (stereo not given)
Result: > 10 µM

Task: Next up: C[C@@]12CCC[C@@](C)(C(=O)O)C1CC[C@@]13CC(=O)[C@@](CO)(CCC12)C3 (stereo not given in full)
Result: > 100 µM

Task: Now consider `COc1c(Cl)c(Cl)c(OC)c2c1C(=O)C=CC2=O` .
Result: > 100 µM

Task: Also CC(CN(C)C)C(=O)/C=C/c1ccc(Cl)c(Cl)c1 (stereo not given) ?
Result: 4.07 µM

Task: Consider next the compound `O=C1C=C(Nc2nc(C(=O)O)cc(=O)[nH]2)c2ccccc2C1=O` in the same way.
Result: > 100 µM
